// provenance: ChEMBL document CHEMBL1155301

Target: cGMP-specific 3',5'-cyclic phosphodiesterase (Homo sapiens, UniProt O76074)
Assay: Inhibition of PDE5
pIC50: −log10 of the molar value.
Give Satisfied when the value for pIC50 is at least 9. Give Not satisfied when it is less.

Please indicate if the recorded pIC50 for `CCCOCCn1c(=O)c(NCCCO)nc2cnc(-c3ccc(OC)nc3)cc21` meets or exceeds 9.
Satisfied

Please indicate if the recorded pIC50 for `CCCOCCn1c(=O)c(NCCN)nc2cnc(-c3ccc(OC)nc3)cc21` meets or exceeds 9.
Satisfied

Please indicate if the recorded pIC50 for `CCCOCCn1c(=O)c(NCc2ccccn2)nc2ncc(-c3ccc(OC)nc3)cc21` meets or exceeds 9.
Satisfied

Please indicate if the recorded pIC50 for `CCCOCCn1c(=O)c(NCc2cnccn2)nc2cnc(-c3ccc(OC)nc3)cc21` meets or exceeds 9.
Satisfied

Please indicate if the recorded pIC50 for `CCCOCCn1c(=O)c(NCC(=O)O)nc2ncc(-c3ccc(OC)nc3)cc21` meets or exceeds 9.
Not satisfied

Please indicate if the recorded pIC50 for `CCCOCCn1c(=O)c(NCC(=O)N(C)C)nc2ncc(-c3ccc(OC)nc3)cc21` meets or exceeds 9.
Not satisfied

Please indicate if the recorded pIC50 for `CCCOCCn1c(=O)c(N[C@H](CC)CO)nc2cnc(-c3ccc(OC)nc3)cc21` meets or exceeds 9.
Satisfied

Please indicate if the recorded pIC50 for `CCCOCCn1c(=O)c(NCC(=O)N2CCN(CC)CC2)nc2cnc(-c3ccc(OC)nc3)cc21` meets or exceeds 9.
Satisfied
